# Protocol: qHTS assay for small molecule antagonists of retinoid X receptor alpha signaling (AID 588546);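 also: cells stimulated with 9-cis-retinoic acid as agonist; % is scaled to controls: 0 for no effect and ±100 for the full control effect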
# Condition info: HEK293T RXRa-UAS-bla, beta-lactamase ratio, antagonist mode; measured here: W530 green channel, cytotoxicity proxy
Records with an inconclusive call do not appear.
Measurement name: max response (%)
Dear colleague, please return just the value in %, with no unit written.

Please review the following examples before continuing.
• NCC(O)c1ccc(O)cc1 (stereo not drawn) = 5.99
• C=C(C)[C@H]1Cc2c(ccc3c2O[C@@H]2COc4cc(OC)c(OC)cc4[C@@H]2C3=O)O1 = 12.4
• Oc1ccc(Cl)cc1Cc1ccccc1 = -5.58

Asked: What value of max response has been recorded for this entry: `Nc1ccncc1`
Given back: -5.09

Asked: What value of max response has been recorded for this entry: `C[C@]12CCC(=O)C(O)=C1CC[C@@H]1[C@@H]2CC[C@]2(C)C(=O)CC[C@@H]12`
Given back: 17.4

Asked: What value of max response has been recorded for this entry: `O=c1[nH]c2ccccc2n1C1CCN(CCCC(c2ccc(F)cc2)c2ccc(F)cc2)CC1`
Given back: -25.7

Asked: What value of max response has been recorded for this entry: `Cc1cc(SCc2sc(-c3ccc(C(F)(F)F)c(F)c3)nc2C)ccc1OCC(=O)O`
Given back: 25.2

Asked: What value of max response has been recorded for this entry: `Oc1cccc2cccnc12`
Given back: 12
